- System: ATP;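 note: ATP exposure 15 min at 22 °C before imaging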
- assay_name: switch fluorescence ratio, 500 uM ATP over buffer (Cy3 cluster intensity, sum of 5 cycles each) (fold (ratio)); higher = stronger signal-on switching upon ATP binding; sequences stand for … in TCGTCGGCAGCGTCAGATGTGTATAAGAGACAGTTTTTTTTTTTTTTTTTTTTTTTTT…TC
- protocol_conditions: aptamer strand: ATP DNA aptamer (quencher-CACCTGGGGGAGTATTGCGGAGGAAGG + anchor), 100 nM annealed; ATP concentration: 500 uM
# switch fluorescence ratio per record follows

Per the record, TATGTTATTC has switch fluorescence ratio of 1.01

# switch fluorescence ratio of GCTACAGCTA = 1.01

switch fluorescence ratio reported for this sequence CTTTGGTATA : 0.977
